assay: Solubility limit; format: physicochemical; details: read-out: solubility limits
Result Type: solubility

Looking for the measured solubility of CO[C@H]1CC[C@@]2(C)C(=CC[C@H]3[C@@H]4CC[C@H](C(C)=O)[C@@]4(C)CC[C@@H]32)C1 [3-methoxy-PREG, 3β-methoxy-pregna-5-ene-20-one] , can you help?
~50 µM

###

biological target: UniProt P11137; experiment: Binding (affinity) by displacement of PREG-^3H
Sequence (P11137 whole entry): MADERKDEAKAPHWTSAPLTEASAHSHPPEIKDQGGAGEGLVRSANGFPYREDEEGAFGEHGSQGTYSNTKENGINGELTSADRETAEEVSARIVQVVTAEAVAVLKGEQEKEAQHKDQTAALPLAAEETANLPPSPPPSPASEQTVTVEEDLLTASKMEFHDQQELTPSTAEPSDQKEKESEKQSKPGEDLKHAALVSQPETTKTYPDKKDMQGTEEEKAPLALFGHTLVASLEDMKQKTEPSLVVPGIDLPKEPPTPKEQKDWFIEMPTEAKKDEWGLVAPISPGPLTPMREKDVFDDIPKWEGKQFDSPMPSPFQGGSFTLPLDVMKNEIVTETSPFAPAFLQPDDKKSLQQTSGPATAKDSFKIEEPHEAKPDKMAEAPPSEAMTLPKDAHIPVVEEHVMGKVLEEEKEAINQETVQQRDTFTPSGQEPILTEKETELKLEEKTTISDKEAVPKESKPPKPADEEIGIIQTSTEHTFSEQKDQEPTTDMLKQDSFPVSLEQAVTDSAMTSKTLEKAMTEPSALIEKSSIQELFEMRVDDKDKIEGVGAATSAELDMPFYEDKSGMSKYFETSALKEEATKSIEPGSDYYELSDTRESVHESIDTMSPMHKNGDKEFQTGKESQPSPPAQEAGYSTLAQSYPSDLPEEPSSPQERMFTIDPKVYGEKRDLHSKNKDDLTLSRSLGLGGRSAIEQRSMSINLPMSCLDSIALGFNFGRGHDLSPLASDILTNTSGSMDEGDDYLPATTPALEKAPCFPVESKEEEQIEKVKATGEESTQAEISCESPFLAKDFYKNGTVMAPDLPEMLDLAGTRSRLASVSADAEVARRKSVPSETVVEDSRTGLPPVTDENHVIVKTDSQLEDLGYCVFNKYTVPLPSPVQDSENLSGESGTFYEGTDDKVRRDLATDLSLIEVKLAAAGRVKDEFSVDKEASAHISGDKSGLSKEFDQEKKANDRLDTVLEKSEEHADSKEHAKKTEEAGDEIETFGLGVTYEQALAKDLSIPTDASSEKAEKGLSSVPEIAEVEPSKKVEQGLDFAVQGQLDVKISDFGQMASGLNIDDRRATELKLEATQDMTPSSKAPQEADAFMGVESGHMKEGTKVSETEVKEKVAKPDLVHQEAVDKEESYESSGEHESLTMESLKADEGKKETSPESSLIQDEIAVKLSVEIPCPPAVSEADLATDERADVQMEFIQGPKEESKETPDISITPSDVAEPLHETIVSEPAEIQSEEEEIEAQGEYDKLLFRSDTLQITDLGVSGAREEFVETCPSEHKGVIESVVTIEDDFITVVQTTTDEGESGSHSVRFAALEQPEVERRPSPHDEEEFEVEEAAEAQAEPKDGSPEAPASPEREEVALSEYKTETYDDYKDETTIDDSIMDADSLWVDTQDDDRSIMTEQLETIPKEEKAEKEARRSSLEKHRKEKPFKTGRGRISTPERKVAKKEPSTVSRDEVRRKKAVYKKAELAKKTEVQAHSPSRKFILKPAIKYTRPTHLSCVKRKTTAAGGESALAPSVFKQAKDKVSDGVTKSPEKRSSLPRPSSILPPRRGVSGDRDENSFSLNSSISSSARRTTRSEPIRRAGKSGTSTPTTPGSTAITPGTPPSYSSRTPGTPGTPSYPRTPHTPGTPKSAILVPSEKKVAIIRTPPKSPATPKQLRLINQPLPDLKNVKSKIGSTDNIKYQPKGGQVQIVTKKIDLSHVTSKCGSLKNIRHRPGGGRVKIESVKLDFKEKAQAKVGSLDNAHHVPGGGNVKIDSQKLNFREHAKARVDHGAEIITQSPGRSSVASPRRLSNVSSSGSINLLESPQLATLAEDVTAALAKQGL
The following compounds are listed with their measured Affinity (index of binding) values.

Some entries whose results are on file:
Compound	Affinity (index of binding)
CC(=O)[C@H]1[C@@H](C)C[C@H]2[C@@H]3CC=C4C[C@@H](O)CC[C@]4(C)[C@H]3CC[C@@]21C [PREG-16β-methyl]	63% of PREG
CO[C@H]1CC[C@@]2(C)C(=CC[C@H]3C4=CC[C@H](C(C)=O)[C@@]4(C)CC[C@@H]32)C1 [3β-methoxy-pregna-5,14-diene-20-one]	102% of PREG
CO[C@H]1CC[C@@]2(C)C(CCC3C2CC[C@@]2(C)C3CC[C@@H]2[C@@H](C)O)C1 (stereo partly drawn) [3β-methoxy-5α-pregnane-20β-ol]	65% of PREG
CO[C@H]1CC[C@@]2(C)C(=CC[C@H]3[C@@H]4CC[C@H](C(C)=O)[C@@]4(C)CC[C@@H]32)C1 [3-methoxy-PREG, 3β-methoxy-pregna-5-ene-20-one]	100% of PREG
CC(=O)[C@H]1[C@H](C)C[C@H]2[C@@H]3CC=C4C[C@@H](O)CC[C@]4(C)[C@H]3CC[C@@]21C [PREG-16α-methyl]	80% of PREG

Now let's try a different one.
Consider the compound shown here: CO[C@H]1CC[C@@]2(C)C(=CC[C@@H]3[C@@H]2CC[C@@]2(C)[C@H]3CC[C@@]2(C(C)=O)C(Cl)Cl)C1 What is its recorded Affinity (index of binding)?
53% of PREG
